Data origin, for the record: patent US6794402B2

tested.system: [3H]ifenprodil binding site, rat forebrain membranes (Rattus norvegicus, UniProt P35439+Q00960)
Construct: membrane fraction was prepared from frozen adult rat forebrains; tissue Zivic-Miller Laboratories, Inc
Sequence (Q00960 27-1482, other chains not shown): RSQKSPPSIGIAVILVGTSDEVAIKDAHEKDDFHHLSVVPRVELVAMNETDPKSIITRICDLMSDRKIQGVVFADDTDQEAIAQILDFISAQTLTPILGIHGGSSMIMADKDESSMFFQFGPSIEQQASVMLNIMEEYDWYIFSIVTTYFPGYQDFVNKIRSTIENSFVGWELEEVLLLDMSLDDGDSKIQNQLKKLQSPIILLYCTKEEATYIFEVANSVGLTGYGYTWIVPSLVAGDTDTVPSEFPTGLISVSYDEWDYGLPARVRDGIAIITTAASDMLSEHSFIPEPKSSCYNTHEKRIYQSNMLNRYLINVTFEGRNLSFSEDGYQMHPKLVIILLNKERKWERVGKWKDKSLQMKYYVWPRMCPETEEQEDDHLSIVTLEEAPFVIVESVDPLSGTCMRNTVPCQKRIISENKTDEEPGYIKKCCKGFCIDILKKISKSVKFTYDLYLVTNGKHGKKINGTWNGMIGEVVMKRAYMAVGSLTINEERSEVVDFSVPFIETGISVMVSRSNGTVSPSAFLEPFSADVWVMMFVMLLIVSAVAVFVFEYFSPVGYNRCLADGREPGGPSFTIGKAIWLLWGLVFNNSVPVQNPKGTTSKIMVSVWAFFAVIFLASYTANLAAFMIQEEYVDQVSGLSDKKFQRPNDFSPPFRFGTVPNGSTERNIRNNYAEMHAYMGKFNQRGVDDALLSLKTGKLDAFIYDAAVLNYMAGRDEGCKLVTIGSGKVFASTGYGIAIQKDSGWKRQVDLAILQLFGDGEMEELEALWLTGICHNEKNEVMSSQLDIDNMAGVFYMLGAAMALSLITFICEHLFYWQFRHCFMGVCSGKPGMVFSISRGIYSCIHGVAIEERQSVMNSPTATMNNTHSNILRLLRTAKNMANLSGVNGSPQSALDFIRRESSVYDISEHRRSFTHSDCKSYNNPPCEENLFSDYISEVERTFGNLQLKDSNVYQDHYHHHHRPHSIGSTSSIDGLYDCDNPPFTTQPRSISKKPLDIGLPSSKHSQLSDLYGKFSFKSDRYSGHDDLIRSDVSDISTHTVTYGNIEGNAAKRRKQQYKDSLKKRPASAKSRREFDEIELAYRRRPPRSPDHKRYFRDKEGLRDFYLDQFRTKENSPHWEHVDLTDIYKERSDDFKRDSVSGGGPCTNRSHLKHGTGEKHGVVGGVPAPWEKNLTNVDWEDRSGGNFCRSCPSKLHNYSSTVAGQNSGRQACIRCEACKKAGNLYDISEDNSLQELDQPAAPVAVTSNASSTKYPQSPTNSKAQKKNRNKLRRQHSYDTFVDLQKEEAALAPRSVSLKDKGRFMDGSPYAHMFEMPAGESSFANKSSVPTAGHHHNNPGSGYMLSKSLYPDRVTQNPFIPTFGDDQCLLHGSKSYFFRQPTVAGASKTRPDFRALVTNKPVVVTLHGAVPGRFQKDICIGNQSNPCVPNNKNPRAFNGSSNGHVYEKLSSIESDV
assay.protocol: [3H]Ifenprodil binding assay
reported.conditions: 4 nM [3H]-ifenprodil, 2 hours at room temperature
property: pIC50
// field semantics: pIC50 = negative decimal log of concentration (mol/L)

| compound | property | measured.number |
| --- | --- | --- |
| Cc1cc2[nH]c(=O)oc2cc1[C@H]1CC[C@H](N(C)CCCc2ccc(F)cc2)CC1 [Example 64] | pIC50 | 7.35 |
| CN(CCCc1ccc(Cl)cc1F)[C@H]1CC[C@H](c2ccc3[nH]c(=O)oc3c2)CC1 [Example 45b] | pIC50 | 8.15 |

Entry Cc1ccc(CCCN(C)[C@H]2CC[C@H](c3ccc4[nH]c(=O)oc4c3)CC2)c(C)c1 [Example 41b] : reported pIC50 = ?
7.17

Entry CC(Cc1ccccc1)CN(C)[C@H]1CC[C@H](c2ccc3[nH]c(=O)oc3c2)CC1 (stereo partly shown) [Example 50b] : reported pIC50 = ?
6.45
